Assay Explanation: Oral bioavailability in rat
Format: ADME, organism-based
Setup Conditions: in vivo
If the reported bioavailability equals or exceeds 7%, assign 1.0. If not, assign 0.0.

Task: Exam item: decide whether the reported bioavailability for Cc1cnc(COC(=O)NC(C(=O)N[C@@H](Cc2ccccc2)C[C@H](O)[C@H](Cc2ccccc2)NC(=O)OCc2cccnc2)C(C)C)cn1 (stereo partly specified) is at least 7%.
Output: 0.0

Task: Exam item: decide whether the reported bioavailability for CCc1nc(CN(C)C(=O)NC(C(=O)N[C@@H](Cc2ccccc2)C[C@H](O)[C@H](Cc2ccccc2)NC(=O)OCc2cncs2)C(C)C)cs1 (stereo partly specified) is at least 7%.
Output: 1.0

Task: Exam item: decide whether the reported bioavailability for CCc1ncc(COC(=O)NC(C(=O)N[C@@H](Cc2ccccc2)C[C@H](O)[C@H](Cc2ccccc2)NC(=O)OCc2cccnc2)C(C)C)s1 (stereo partly specified) is at least 7%.
Output: 0.0

Task: Exam item: decide whether the reported bioavailability for CC(C)c1nc(CN(C)C(=O)NC(C(=O)N[C@@H](Cc2ccccc2)C[C@H](O)[C@H](Cc2ccccc2)NC(=O)OCc2ccno2)C(C)C)co1 (stereo partly specified) is at least 7%.
Output: 0.0

Task: Exam item: decide whether the reported bioavailability for Cc1ncc(CN(C)C(=O)NC(C(=O)N[C@@H](Cc2ccccc2)C[C@H](O)[C@H](Cc2ccccc2)NC(=O)OCc2cccnc2)C(C)C)nc1C (stereo partly specified) is at least 7%.
Output: 0.0

Task: Exam item: decide whether the reported bioavailability for CCN(Cc1csc(C(C)C)n1)C(=O)NC(C)C(=O)N[C@@H](Cc1ccccc1)C[C@H](O)[C@H](Cc1ccccc1)NC(=O)OCc1cncs1 (stereo partly specified) is at least 7%.
Output: 0.0

Task: Exam item: decide whether the reported bioavailability for CC(C)C(NC(=O)OCc1ccccn1)C(=O)N[C@@H](Cc1ccccc1)C[C@H](O)[C@H](Cc1ccccc1)NC(=O)OCc1cncs1 (stereo partly specified) is at least 7%.
Output: 1.0

Task: Exam item: decide whether the reported bioavailability for Cc1nc(CN(C)C(=O)NC(C(=O)N[C@@H](Cc2ccccc2)[C@@H](O)C[C@H](Cc2ccccc2)NC(=O)OCc2cccnc2)C(C)C)cs1 (stereo partly specified) is at least 7%.
Output: 1.0

Task: Exam item: decide whether the reported bioavailability for COc1cncc(CN(C)C(=O)NC(C(=O)N[C@@H](Cc2ccccc2)C[C@H](O)[C@H](Cc2ccccc2)NC(=O)OCc2cccnc2)C(C)C)c1 (stereo partly specified) is at least 7%.
Output: 0.0

Task: Exam item: decide whether the reported bioavailability for CC(C)C(NC(=O)OCc1csc(N2CCOCC2)n1)C(=O)N[C@@H](Cc1ccccc1)C[C@H](O)[C@H](Cc1ccccc1)NC(=O)OCc1cccnc1 (stereo partly specified) is at least 7%.
Output: 0.0

Task: Exam item: decide whether the reported bioavailability for Cc1cncc(COC(=O)NC(C(=O)N[C@@H](Cc2ccccc2)C[C@H](O)[C@H](Cc2ccccc2)NC(=O)OCc2cccnc2)C(C)C)n1 (stereo partly specified) is at least 7%.
Output: 1.0

Task: Exam item: decide whether the reported bioavailability for COc1ccc(CN(C)C(=O)NC(C(=O)N[C@@H](Cc2ccccc2)C[C@H](O)[C@H](Cc2ccccc2)NC(=O)OCc2cccnc2)C(C)C)nc1 (stereo partly specified) is at least 7%.
Output: 0.0

Task: Exam item: decide whether the reported bioavailability for CC(C)C(NC(=O)OCc1nccs1)C(=O)N[C@@H](Cc1ccccc1)C[C@H](O)[C@H](Cc1ccccc1)NC(=O)OCc1cccnc1 (stereo partly specified) is at least 7%.
Output: 1.0

Task: Exam item: decide whether the reported bioavailability for CC(C)C(NC(=O)OCc1ccccn1)C(=O)N[C@@H](Cc1ccccc1)[C@@H](O)C[C@H](Cc1ccccc1)NC(=O)OCc1cncnc1 (stereo partly specified) is at least 7%.
Output: 0.0

Task: Exam item: decide whether the reported bioavailability for COc1ccc(COC(=O)NC(C(=O)N[C@@H](Cc2ccccc2)C[C@H](O)[C@H](Cc2ccccc2)NC(=O)OCc2cccnc2)C(C)C)nc1 (stereo partly specified) is at least 7%.
Output: 0.0

Task: Exam item: decide whether the reported bioavailability for CC(C)c1nc(CN(C)C(=O)NC(C(=O)N[C@@H](Cc2ccccc2)C[C@H](O)[C@H](Cc2ccccc2)NC(=O)OCc2cccnc2)C(C)C)cs1 (stereo partly specified) is at least 7%.
Output: 1.0

Task: Exam item: decide whether the reported bioavailability for CC(NC(=O)N(C)Cc1coc(C(C)C)n1)C(=O)N[C@@H](Cc1ccccc1)C[C@H](O)[C@H](Cc1ccccc1)NC(=O)OCc1cncs1 (stereo partly specified) is at least 7%.
Output: 1.0

Task: Exam item: decide whether the reported bioavailability for CC(C)C(NC(=O)N(C)Cc1cscn1)C(=O)N[C@@H](Cc1ccccc1)[C@@H](O)C[C@H](Cc1ccccc1)NC(=O)OCc1cccnc1 (stereo partly specified) is at least 7%.
Output: 1.0

Task: Exam item: decide whether the reported bioavailability for CC(C)c1cccc(COC(=O)NC(C(=O)N[C@@H](Cc2ccccc2)C[C@H](O)[C@H](Cc2ccccc2)NC(=O)OCc2cccnc2)C(C)C)n1 (stereo partly specified) is at least 7%.
Output: 0.0

Task: Exam item: decide whether the reported bioavailability for CC(C)C(NC(=O)N(C)Cc1ccccn1)C(=O)N[C@@H](Cc1ccccc1)C[C@H](O)[C@H](Cc1ccccc1)NC(=O)OCc1cccnc1 (stereo partly specified) is at least 7%.
Output: 1.0

Task: Exam item: decide whether the reported bioavailability for Cc1ccc(CN(C)C(=O)NC(C(=O)N[C@@H](Cc2ccccc2)C[C@H](O)[C@H](Cc2ccccc2)NC(=O)OCc2cccnc2)C(C)C)cn1 (stereo partly specified) is at least 7%.
Output: 0.0

Task: Exam item: decide whether the reported bioavailability for CC(C)C(NC(=O)N(C)Cc1csc(C2CC2)n1)C(=O)N[C@@H](Cc1ccccc1)C[C@H](O)[C@H](Cc1ccccc1)NC(=O)OCc1cncs1 (stereo partly specified) is at least 7%.
Output: 1.0

Task: Exam item: decide whether the reported bioavailability for CC(NC(=O)N(Cc1csc(C(C)C)n1)C1CC1)C(=O)N[C@@H](Cc1ccccc1)C[C@H](O)[C@H](Cc1ccccc1)NC(=O)OCc1cncs1 (stereo partly specified) is at least 7%.
Output: 1.0

Task: Exam item: decide whether the reported bioavailability for CC(C)C(NC(=O)OCc1csc(N2CCOCC2)n1)C(=O)N[C@@H](Cc1ccccc1)[C@@H](O)C[C@H](Cc1ccccc1)NC(=O)OCc1cccnc1 (stereo partly specified) is at least 7%.
Output: 0.0

Task: Exam item: decide whether the reported bioavailability for CC(C)c1nc(COC(=O)NC(C(=O)N[C@@H](Cc2ccccc2)C[C@H](O)[C@H](Cc2ccccc2)NC(=O)OCc2cccnc2)C(C)C)co1 (stereo partly specified) is at least 7%.
Output: 0.0

Task: Exam item: decide whether the reported bioavailability for CC(C)C(NC(=O)OCc1ccccn1)C(=O)N[C@@H](Cc1ccccc1)[C@@H](O)C[C@H](Cc1ccccc1)NC(=O)OCc1cccnc1 (stereo partly specified) is at least 7%.
Output: 1.0

The origin of these recorded values is ChEMBL document CHEMBL1131475.
